meta.source: the supplement of paper PMC10065799

- target entity: EPHB2 (UniProt P29323)
- Sequence (P29323 whole entry, looked up): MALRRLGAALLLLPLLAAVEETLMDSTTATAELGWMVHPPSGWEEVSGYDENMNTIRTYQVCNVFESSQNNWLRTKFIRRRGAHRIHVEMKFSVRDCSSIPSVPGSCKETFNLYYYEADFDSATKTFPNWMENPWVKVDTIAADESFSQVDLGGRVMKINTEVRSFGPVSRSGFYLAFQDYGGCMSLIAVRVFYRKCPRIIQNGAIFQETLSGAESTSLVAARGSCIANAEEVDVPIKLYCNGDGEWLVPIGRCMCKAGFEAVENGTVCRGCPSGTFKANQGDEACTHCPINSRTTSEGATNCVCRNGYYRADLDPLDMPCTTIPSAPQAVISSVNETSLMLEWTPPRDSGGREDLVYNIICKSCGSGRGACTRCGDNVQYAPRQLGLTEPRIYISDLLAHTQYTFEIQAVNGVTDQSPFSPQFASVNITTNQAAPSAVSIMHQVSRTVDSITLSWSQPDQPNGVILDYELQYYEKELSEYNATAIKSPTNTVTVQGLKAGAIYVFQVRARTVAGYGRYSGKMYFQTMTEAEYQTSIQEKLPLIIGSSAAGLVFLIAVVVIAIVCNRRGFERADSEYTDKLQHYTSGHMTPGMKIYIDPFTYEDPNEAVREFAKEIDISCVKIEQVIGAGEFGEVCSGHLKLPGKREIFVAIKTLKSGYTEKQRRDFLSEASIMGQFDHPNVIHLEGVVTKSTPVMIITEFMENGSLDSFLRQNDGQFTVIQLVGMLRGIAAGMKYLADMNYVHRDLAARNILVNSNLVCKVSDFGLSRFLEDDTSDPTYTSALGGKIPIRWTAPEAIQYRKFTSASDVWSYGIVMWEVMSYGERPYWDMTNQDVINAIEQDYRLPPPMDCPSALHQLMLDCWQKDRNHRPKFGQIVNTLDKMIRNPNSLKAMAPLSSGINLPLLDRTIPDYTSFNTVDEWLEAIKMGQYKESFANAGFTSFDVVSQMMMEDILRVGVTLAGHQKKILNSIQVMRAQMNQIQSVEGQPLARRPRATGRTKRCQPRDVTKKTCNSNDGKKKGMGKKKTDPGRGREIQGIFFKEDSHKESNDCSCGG
- method description: phosphorylation enrichment, bacterial display (enrichment ratio); higher = better substrate or ligand; peptides without Tyr show the background
Note to self: class labels come from recorded phosphorylation enrichment, ranges listed here: bucket 1: < 0.5; bucket 2: ≥ 0.5 and < 0.7; bucket 3: ≥ 0.7

YEREQYADRAR [RBM4_Y355] | bucket 1
SNMPTYSGHFS [GRIN2A_Y1224_T1229S] | bucket 3
KGKLIYLLGDS [NXPE1_Y350] | bucket 1

Tag the class for HRGHLYLAIEY [TEK_Y899_Y897H]
bucket 3

Band of TSSGGYRRTPS [ABI1_Y333] ?
bucket 2

Class? Entry: NRDNTYNPVSE [FGA_Y127_R129P]
bucket 1

Each sequence maps to one class by phosphorylation enrichment. Which class for KILAKYLLETS [NAMPT_Y175] ?
bucket 1

Which bin should I file GFSDPYVKASL [SYT3_Y470] under?
bucket 1

Dear colleague, I would appreciate it if you could identify the bin for STTIHYNYMCN [TP53_Y234_C229S] and reply at your convenience.
bucket 2

Returns: class label. Input: FSSLGYPPPEG [ZSWIM4_Y87_YF]
bucket 1

Bin? ALSDGYWVVSN [TPP1_Y459]
bucket 2

State the band of CETMEYLESKQ [BTK_Y511_A508T]
bucket 3

Any idea which band IGCHAYGDQFR [IDH1_Y135_R132C_YF] is in?
bucket 2

// return the class label for SQSPHYFRSGR [GPATCH8_Y1038]
bucket 1

Form field 'band' for KLPFPYDDPFS [GPX2_Y127_YF]
bucket 3

Where would LKRCQYVTEKV [ALDOA_Y204] land among the classes by reported phosphorylation enrichment?
bucket 3

Which bin, given its phosphorylation enrichment, does SADIAYNYRHG [PAH_Y166_F161S] occupy?
bucket 1

Category of RRLEPYGENFN [APOA4_Y310_V307L] :
bucket 1

Hey, which category is SWVVPYEPPEV [TP53_Y220_V216W] in, do you know?
bucket 2

For this sequence, which bin applies? TCFDKYTGSTY [FN1_Y101_N104S]
bucket 2

* * *

- target entity: c-Src SH2
- method description: SH2 binding enrichment of the phosphorylated peptide, bacterial display (enrichment ratio); higher = better substrate or ligand; peptides without Tyr show the background
Short version: SH2 binding enrichment at least 0.7 is condition met, less is condition not met.

Use these answered entries as a reference point.
IHYPPYTDWNQ [ALDH3B2_Y365] | condition met
FAFQLYDLDPD [CHP2_Y123_R127P_YF] | condition met
EFISESCGEII [EZH2_Y641_Y641S] | condition not met

# input for lookup
Quick check: does MRALIYNSSTA [PLEKHA7_Y243] have SH2 binding enrichment greater than or equal to 0.7?
condition not met

* * *

Entries annotated with measured SH2 binding enrichment
- target entity: Grb2 SH2 (UniProt P62993)
- Sequence (P62993 whole entry, looked up): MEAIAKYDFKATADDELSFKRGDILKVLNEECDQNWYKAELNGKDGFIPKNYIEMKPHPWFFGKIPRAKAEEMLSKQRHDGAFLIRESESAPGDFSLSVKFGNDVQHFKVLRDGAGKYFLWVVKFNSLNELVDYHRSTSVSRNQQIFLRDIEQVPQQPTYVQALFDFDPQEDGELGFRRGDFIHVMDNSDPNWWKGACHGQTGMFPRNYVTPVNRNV
- method description: SH2 binding enrichment of the phosphorylated peptide, bacterial display (enrichment ratio); higher = better substrate or ligand; peptides without Tyr show the background
Please give only the number in your answer, with no unit.

NNIDFYKNTTN [FGFR2_Y657_K659N_YF] | 0.804
RRLEPYGENFN [APOA4_Y310_V307L] | 0.822
LLILEYAKFGS [RET_Y806_V804L_YF] | 2.19
VKPENYRRPDI [VHL_Y175_L178P] | 0.846
YSTDCYRVGGH [NTRK2_Y707_Y706C] | 0.891

Fill in: SH2 binding enrichment of GIVEDYRPPVF [ACVRL1_Y421_F425V_YF] is ___
0.726

For the sequence shown here, DGTIVCTGLET [USH2A_Y4487_Y4487C] , give the reported SH2 binding enrichment.
0.936

What measured SH2 binding enrichment goes with GEFHVYRHLRW [PRKRIP1_Y82_R87W] ?
0.972
